Could you please report measured cell viability, % of control (lower = more cytotoxic) for the items listed next?
- Experiment summary: High-throughput drug toxicity screening in the BPDCN cell line Gen2.2 (AID 1224824);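 note: cells exposed to compounds for 48 h before reading; 100% = DMSO and 0% = bortezomib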
- Test parameters: Gen2.2 BPDCN cells; at 45.8 µM (top of the series) unless noted

Which cell viability, % of control (lower = more cytotoxic) value belongs to Cc1cc(C(=O)NOCCO)c(Nc2ccc(I)cc2F)n(C)c1=O ? 7.2%

Please give the result for CC(=CC(=O)Nc1ccccc1C(=O)O)c1ccc2ccccc2c1 too. 115%

Please give the result for COc1cccc2c1C(=O)c1c(O)c3c(c(O)c1C2=O)C[C@@](O)(C(C)=O)C[C@H]3O[C@H]1C[C@H](N)[C@H](O)[C@H](C)O1 too. 3.75%

Please give the result for CC(=O)NCC(=O)N1[C@H]2CC[C@H]1c1cc(Nc3ncc(C(F)(F)F)c(NC4CCC4)n3)ccc12 too. 2.71%

Please give the result for Cc1coc2c1C(=O)C(=O)c1c-2ccc2c(C)cccc12 too. 45.1%

Please give the result for FC(F)c1nc2ccccc2n1-c1nc(N2CCOCC2)nc(N2CCOCC2)n1 too. 9.88%

Please give the result for CCN(CC)Cc1ccc2cc(COC(=O)Nc3ccc(C(=O)NO)cc3)ccc2c1 too. 8.65%

Please give the result for CC(C=CC=C(C)C=CC1=C(C)CCCC1(C)C)=CC=CC=C(C)C=CC=C(C)C=CC1=C(C)CCCC1(C)C too. 8%

Please give the result for C=CCNC1=C2C[C@@H](C)C[C@H](OC)[C@@H](O)[C@@H](C)C=C(C)[C@H](OC(N)=O)[C@@H](OC)C=CC=C(C)C(=O)NC(=CC1=O)C2=O too. 6.66%

Please give the result for CCN(C(=O)c1c(O)c2c(Cl)cccc2n(C)c1=O)c1ccccc1 too. 112%

Please give the result for NC(=O)c1cccc(-c2cccc(OC(=O)NC3CCCCC3)c2)c1 too. 128%

Please give the result for Cc1cn([C@@H]2O[C@H](CO)[C@@H](O)[C@H]2F)c(=O)[nH]c1=O too. 189%

Please give the result for COC(=O)[C@@H]1[C@H]2C[C@@H]3c4[nH]c5ccccc5c4CCN3C[C@@H]2CC[C@@H]1O too. 24.1%

Please give the result for Cn1cc(-c2ccc3ncc(Cc4ccc5ncccc5c4)n3n2)cn1 too. 45.5%

Please give the result for CNC(=O)c1ccc(Nc2cc(Nc3ccccc3S(=O)(=O)C(C)C)c3cc[nH]c3n2)nc1 too. 19.7%

Please give the result for CC(C)(C)[C@H](NC(=O)c1ccc(N)c(Cl)c1)C(=O)N1CCC[C@@H]1C(=O)N[C@H](C#N)CC(=O)O too. 14.9% [at 3.51 µM]

Please give the result for COc1ccc(Nc2cc(-c3cnc(N)nc3)nc(N3CCOCC3)n2)cn1 too. 28.9%

Please give the result for O=c1c(O)c(-c2ccc(O)c(O)c2)oc2cc(O)ccc12 too. 9.57%

Please give the result for CC(Cc1ccc(O)c(O)c1)(NN)C(=O)O (stereo not given) too. 108%

Please give the result for C#C[C@]1(O)CC[C@@H]2[C@@H]3CCC4=CC(=O)CC[C@@H]4[C@H]3CC[C@@]21CC too. 146%

Numbers sourced from PubChem BioAssay (NCATS).
